Value source: paper PMC10786919

# ASSAY_EXPLANATION: Solubility assay (kinetic solubility, PBS pH 7)
# Type: physicochemical
# CONDITIONS_USED: pH 7, aqueous buffer, kinetic from dmso stock, pH 7, PBS; read-out: Solubility
# Method: The standard reference solutions were prepared by diluting the 10 mM stock in 10:80:10 solution of acetonitrile:methanol:DMSO to 100 µM. The solubility value is calculated by the following equation: Solubility [µM] = (Peak area of sample/ Peak area of standard) (Standard concentration)
RESULT_TYPE: solubility kinetic (µM)
Give the value, in units of µM, as a plain number.

Inquiry: Given the compound `CC(=O)N[C@@H](CC(C)C)C(=O)N[C@H](C(=O)N[C@@H](Cc1ccccc1)C(=O)NC(C)(C)C(=O)N[C@@H](CCC(=O)O)C(=O)N[C@@H](Cc1ccc(O)cc1)C(=O)N[C@@H](Cc1c[nH]c2ccccc12)C(=O)N[C@H](CCC(N)=O)C(=O)N[C@@H](CC(C)C)C(=O)N[C@@H](CC1CCC1)C(=O)NC(C)(C)C(=O)N[C@@H](CO)C(=O)N[C@@H](C)C(=O)N[C@@H](C)C(N)=O)[C@@H](C)O` , what is its reported solubility kinetic?
Reply text: 170

Inquiry: Given the compound `CC(=O)N[C@@H](CCCCN=[N+]=[N-])C(=O)N[C@@H](CO)C(=O)NCC(=O)N[C@@H](CO)C(=O)N[C@@H](CC(C)C)C(=O)N[C@H](C(=O)N[C@@H](Cc1ccccc1)C(=O)N[C@]1(C)CCCCCCC=CCCC[C@@](C)(C(=O)N[C@@H](CO)C(=O)N[C@@H](C)C(=O)N[C@@H](C)C(N)=O)NC(=O)[C@H](CC2CCC2)NC(=O)[C@H](CCC(N)=O)NC(=O)[C@H](C)NC(=O)[C@H](Cc2c[nH]c3ccccc23)NC(=O)[C@H](Cc2ccc(O)cc2)NC(=O)[C@H](CCC(=O)O)NC1=O)[C@@H](C)O` , what is its reported solubility kinetic?
Reply text: 110

----------
Catalogue of molecules with associated LDH: Cytotoxicity assay: % Effect
# Test system: HCT116 cells
# ASSAY_EXPLANATION: Lactate dehydrogenase (LDH) release assay
# Format: cell-based
Positions of bridges follow the written chain, without caps; N, C: chain ends. Non-standard residues stand in square brackets, D forms with d. Residues, ends and D or L forms follow the SMILES beside them. Lys(N3) = [N-]=[N+]=NCCCC[C@H](N)C(=O)O; R8 = C=CCCCCCC[C@@](C)(N)C(=O)O; Cba = N[C@@H](CC1CCC1)C(=O)O; S5 = C=CCCC[C@](C)(N)C(=O)O; βAla = NCCC(=O)O
Give the value, in units of %, as a plain number.

Inquiry: Given the molecule CC(C)C[C@@H]1NC(=O)[C@H](C)NC(=O)[C@H](Cc2c[nH]c3ccccc23)NC(=O)[C@H](Cc2ccc(O)cc2)NC(=O)[C@H](CCC(=O)O)NC(=O)[C@](C)(NC(=O)[C@H](Cc2ccccc2)NC(=O)[C@H](CO)NC(=O)[C@@H](NC(=O)[C@H](CO)NC(=O)CNC(=O)[C@H](CO)NC(=O)[C@H](CCCCN=[N+]=[N-])NC(=O)[C@@H](N)CCC(=O)O)[C@@H](C)O)CCCCCCC=CCCC[C@@](C)(C(N)=O)NC(=O)[C@H](CC(C)C)NC1=O [MP-0180] , what is its reported LDH: Cytotoxicity assay: % Effect?
Reply text: 13.96

Turning now to a further molecule:
Inquiry: Given the molecule CC(=O)N[C@@H](CCCCN=[N+]=[N-])C(=O)NCCC(=O)N[C@@H](CO)C(=O)N[C@H](C(=O)N[C@@H](Cc1ccccc1)C(=O)N[C@]1(C)CCCCCCC=CCCC[C@@](C)(C(=O)N[C@@H](CO)C(=O)N[C@@H](CO)C(=O)N[C@@H](CO)C(N)=O)NC(=O)[C@H](CC2CCC2)NC(=O)[C@H](CCC(N)=O)NC(=O)[C@H](CO)NC(=O)[C@H](Cc2c[nH]c3ccccc23)NC(=O)[C@H](Cc2ccc(O)cc2)NC(=O)[C@H](CO)NC1=O)[C@@H](C)O [MP-667] (Ac-[Lys(N3)][βAla]STF[R8]SYWSQ[Cba][S5]SSS-NH2; staple 6-13) , what is its reported LDH: Cytotoxicity assay: % Effect?
Reply text: 2.286
